Source of measurements: patent US9591855B2

pEC50 values for the molecules below.
- System: Bugula neritina larvae
- test name: Larval settlement bioassay, bryozoan larvae
- Type: in vivo
- assay conditions: Bugula neritina, 48 h, read-out: EC50 (concentration in which 50% of larval population was prevented from settling)
pEC50: −log10 of the molar value.
quantity kind: pEC50

molecule: CC(=O)Oc1ccc(C(c2c[nH]c3ccccc23)c2c[nH]c3ccccc23)cc1 [Compound 9]
result value: 5.35
--
molecule: c1ccc2c(Cc3c[nH]c4ccccc34)c[nH]c2c1 [Compound 1, di(1H-indol-3-yl)methane]
result value: 5.60
--
molecule: Oc1ccc(C(c2c[nH]c3ccccc23)c2c[nH]c3ccccc23)cc1 [Compound 8, 4-(di(1H-indol-3-yl)methyl) phenol]
result value: 5.90
